test: CHI Log D procedure; format: physicochemical; conditions: pH 7.4
# CHI Log D listing for each entry below
# respond with the number and nothing more

Below are worked cases with known answers.
[[record]]
molecule = "CC(=O)N1CCC[C@]12CC=CCCCC1(CCCC=CCCCCCC[C@@](C)(C(=O)N[C@@H](Cc3ccccc3)C(=O)N[C@@H](Cc3csc4ccccc34)C(=O)N[C@@H](CCC(N)=O)C(N)=O)NC(=O)[C@H](CC(N)=O)NC(=O)[C@H](Cc3ccsc3)NC(=O)[C@H](C)NC(=O)[C@H](C)NC(=O)[C@H](CCC(=O)O)NC(=O)[C@H](CC(=O)O)NC1=O)NC(=O)[C@H](C)NC(=O)[C@H](CC(=O)O)NC2=O (stereo partly drawn) [I-448]"
recorded_value = 1.976

[[record]]
molecule = "CC(=O)N1CCC[C@]12CC=CCCCC1(CCCC=CCCCCCC[C@@](C)(C(=O)N[C@@H](Cc3ccccc3)C(=O)N[C@@H](Cc3csc4ccccc34)C(N)=O)NC(=O)[C@H](CC(N)=O)NC(=O)[C@H](Cc3ccccc3)NC(=O)[C@H](C)NC(=O)[C@H](C)NC(=O)[C@H](CCC(=O)O)NC(=O)[C@H](CC(=O)O)NC1=O)NC(=O)[C@H](CC1CCCCC1)NC(=O)[C@H](CC(=O)O)NC2=O (stereo partly drawn) [I-626]"
recorded_value = 2.048


Shifting focus to the molecule that follows.
Prompt: Give its CHI Log D value. Item: CCN(CC(=O)O)C[C@@H]1NC(=O)[C@H](CC(=O)O)NC(=O)C2(CCCC=CCCCOC(=O)N3CC[C@@](C(=O)N[C@@H](Cc4ccsc4)C(=O)N[C@@H](Cc4csc5ccccc45)C(=O)N[C@@H](CCC(N)=O)C(N)=O)(C3)NC(=O)[C@H](Cc3ccccc3)NC(=O)[C@H](Cc3ccccc3)NC(=O)[C@H](C)NC(=O)[C@H](C)NC1=O)CCCC=CC[C@]1(CCCN1C(C)=O)C(=O)N[C@@H](CC(=O)O)C(=O)N[C@@H](CC(C)(C)C)C(=O)N2 (stereo partly drawn) [I-971]
Response: 1.939

---

target: full-length beta-Catenin (Uniprot ID P35222) (Homo sapiens, UniProt P35222); construct: 10 nM full-length beta-Catenin (Uniprot ID P35222); experiment: Fluorescence polarization IC50 (beta-catenin / 5FAM-TCF4 10-53 competition); assay type: binding; settings: fluorescence polarization; read-out: beta-Catenin FP IC50
Sequence (P35222 whole entry): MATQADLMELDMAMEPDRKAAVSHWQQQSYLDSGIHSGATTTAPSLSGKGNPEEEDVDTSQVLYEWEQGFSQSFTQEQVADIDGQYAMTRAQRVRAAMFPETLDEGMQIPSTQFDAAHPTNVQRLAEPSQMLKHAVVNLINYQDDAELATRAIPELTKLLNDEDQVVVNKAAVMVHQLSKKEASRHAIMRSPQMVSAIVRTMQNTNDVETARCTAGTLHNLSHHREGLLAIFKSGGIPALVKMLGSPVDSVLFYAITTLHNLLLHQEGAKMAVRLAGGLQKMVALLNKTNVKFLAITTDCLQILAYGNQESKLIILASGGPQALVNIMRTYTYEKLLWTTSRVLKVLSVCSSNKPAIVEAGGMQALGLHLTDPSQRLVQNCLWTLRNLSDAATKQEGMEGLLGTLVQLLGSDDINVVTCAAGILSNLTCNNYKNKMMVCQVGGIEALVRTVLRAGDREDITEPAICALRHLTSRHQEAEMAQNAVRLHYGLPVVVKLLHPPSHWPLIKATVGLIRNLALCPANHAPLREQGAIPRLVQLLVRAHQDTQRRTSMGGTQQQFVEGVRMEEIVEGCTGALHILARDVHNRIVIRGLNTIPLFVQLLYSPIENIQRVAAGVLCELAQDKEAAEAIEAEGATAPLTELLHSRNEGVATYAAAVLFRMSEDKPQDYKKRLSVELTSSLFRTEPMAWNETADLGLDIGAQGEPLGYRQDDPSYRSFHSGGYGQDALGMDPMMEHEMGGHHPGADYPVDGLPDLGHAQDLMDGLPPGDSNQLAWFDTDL
Simple rule here: IC50 less than 100 nM is yes, otherwise no.

[[record]]
compound = "CC(=O)N1CCC[C@]12CC=CCCCC1(CCCC=CCCCOC(=O)N3CC[C@@](C(=O)N[C@@H](Cc4ccccc4Cl)C(=O)N[C@@H](Cc4csc5ccccc45)C(=O)N[C@@H](CO)C(N)=O)(C3)NC(=O)[C@H](CC(C)C)NC(=O)[C@H](Cc3ccccc3)NC(=O)[C@H](C)NC(=O)[C@H](C)NC(=O)[C@H]([C@@H](C)O)NC(=O)[C@H](CC(=O)O)NC1=O)NC(=O)[C@H](CC(C)(C)C)NC(=O)[C@H](CC(=O)O)NC2=O (some centres unmarked) [I-1172]"
assigned_label = "yes"

[[record]]
compound = "CC(=O)N1CCC[C@]12CC=CCCCC1(CCCC=CCCCOC(=O)N3CC[C@@](C(=O)N[C@@H](Cc4ccsc4)C(=O)N[C@@H](Cc4c[nH]c5ccccc45)C(=O)N[C@@H](CCC(N)=O)C(N)=O)(C3)NC(=O)[C@H](CC(C)C)NC(=O)[C@H](Cc3ccccc3)NC(=O)[C@H](C)NC(=O)[C@H](C)NC(=O)[C@H](CC(=O)O)NC(=O)[C@H](CC(=O)O)NC1=O)NC(=O)[C@H](CC(C)(C)C)NC(=O)[C@H](CC(=O)O)NC2=O (some centres unmarked) [I-1431]"
assigned_label = "yes"

[[record]]
compound = "CC(=O)N1CCC[C@]12CC=CCCCC1(CCCC=CCCCCCC[C@@](C)(C(=O)N[C@@H](Cc3ccccc3)C(=O)N[C@@H](Cc3csc4ccccc34)C(=O)N[C@@H](CCO)C(N)=O)NC(=O)[C@H](CCC(N)=O)NC(=O)[C@H](Cc3ccccc3)NC(=O)[C@H](C)NC(=O)[C@H](C)NC(=O)[C@H](CCC(=O)O)NC(=O)[C@H](CC(=O)O)NC1=O)NC(=O)[C@H](C)NC(=O)[C@H](CC(=O)O)NC2=O (some centres unmarked) [I-492]"
assigned_label = "yes"

[[record]]
compound = "CC(=O)N1CCC[C@]12CC=CCCCC1(CCCC=CCCCCCC[C@@](C)(C(=O)N[C@@H](Cc3ccccc3)C(=O)N[C@@H](Cc3csc4ccccc34)C(=O)N[C@@H](CCC(N)=O)C(N)=O)NC(=O)[C@H](CC(N)=O)NC(=O)[C@H](Cc3ccccc3C)NC(=O)[C@H](C)NC(=O)[C@H](C)NC(=O)[C@H](CCC(=O)O)NC(=O)[C@H](CC(=O)O)NC1=O)NC(=O)[C@H](C)NC(=O)[C@H](CC(=O)O)NC2=O (some centres unmarked) [I-456]"
assigned_label = "no"


Please look at the following compound next.
Prompt: Please let me know if CC(=O)N1CCC[C@]12CC=CCC1(CC=CCCCCOC(=O)N3CC[C@@](C(=O)N[C@@H](Cc4ccsc4)C(=O)N[C@@H](Cc4csc5ccccc45)C(=O)N[C@@H](CCC(N)=O)C(N)=O)(C3)NC(=O)[C@H](CC(C)C)NC(=O)[C@H](Cc3ccccc3)NC(=O)[C@H](C)NC(=O)[C@H](C)NC(=O)[C@H](CC(=O)O)NC(=O)[C@H](CC(=O)O)NC1=O)NC(=O)[C@H](CC(C)(C)C)NC(=O)[C@H](CC(=O)O)NC2=O (some centres unmarked) [I-2157] shows IC50 below 100 nM.
Response: no

---

target: beta-catenin/TCF4 engagement (Homo sapiens, UniProt P35222); construct: expressed in transfected cells; host or cells: HEK293; test: Nano-BRET target engagement assay (B-cat-Halo & TCF4-Luc in HEK293 cells); type: cell-based; settings: read-out: NanoBRET Abs IC50
Sequence (P35222 whole entry): as above
Entries and their IC50
Give the value, in units of µM, as a plain number.

As a guide, the following entries are already answered.
[[record]]
molecule = "CCSSCCOC(=O)C[C@@H]1NC(=O)[C@]2(CC=CCCCC3(CCCC=CCCCOC(=O)N4CC[C@@](C(=O)N[C@@H](Cc5ccsc5)C(=O)N[C@@H](Cc5csc6ccccc56)C(=O)N[C@@H](CCC(N)=O)C(N)=O)(C4)NC(=O)[C@H](CC(C)C)NC(=O)[C@H](Cc4ccccc4)NC(=O)[C@H](C)NC(=O)[C@H](C)NC(=O)[C@H](CC(=O)O)NC(=O)[C@H](CC(=O)O)NC3=O)NC(=O)[C@H](CC(C)(C)C)NC1=O)CCCN2C(C)=O (some centres unmarked)"
assayed_system = "beta-catenin/TCF4 engagement (Homo sapiens, UniProt P35222)"
recorded_value = 25.6

[[record]]
molecule = "CC(=O)N1CCC[C@]12CC=CCCCC1(CCCC=CCCCOC(=O)N3CC[C@@](C(=O)N[C@@H](Cc4ccsc4)C(=O)N[C@@H](Cc4csc5ccccc45)C(=O)N[C@@H](C)C(N)=O)(C3)NC(=O)[C@H](CC(C)C)NC(=O)[C@H](Cc3ccccc3)NC(=O)[C@H](C)NC(=O)C(C)(C)NC(=O)[C@H](Cc3cccc(C(=O)O)c3)NC(=O)[C@H](CC(=O)O)NC1=O)NC(=O)[C@H](CC(C)(C)C)NC(=O)[C@H](CC(=O)O)NC2=O (some centres unmarked)"
assayed_system = "beta-catenin/TCF4 engagement (Homo sapiens, UniProt P35222)"
recorded_value = 3.1

[[record]]
molecule = "CC(=O)N1CCC[C@]12CC=CCCCC1(CCCC=CCCCOC(=O)N3CC[C@@](C(=O)N[C@@H](Cc4ccsc4)C(=O)N[C@@H](Cc4csc5ccccc45)C(=O)N[C@@H](C)C(N)=O)(C3)NC(=O)[C@H](CC(C)C)NC(=O)[C@H](Cc3ccccc3)NC(=O)[C@H](C)NC(=O)[C@H](CCCCN)NC(=O)[C@H](Cc3cccc(C(=O)O)c3)NC(=O)[C@H](CC(=O)O)NC1=O)NC(=O)[C@H](CC(C)(C)C)NC(=O)[C@H](CC(=O)O)NC2=O (some centres unmarked)"
assayed_system = "beta-catenin/TCF4 engagement (Homo sapiens, UniProt P35222)"
recorded_value = 37.7


Prompt: Tell me the measured IC50 of CC(=O)N1CCC[C@]12CC=CCCCC1(CCCC=CCCCOC(=O)N3CC[C@@](C(=O)N[C@@H](Cc4ccsc4)C(=O)N[C@@H](Cc4csc5ccccc45)C(=O)N[C@@H](CC(C)(C)C)C(N)=O)(C3)NC(=O)[C@H](CC(C)C)NC(=O)[C@H](Cc3ccccc3)NC(=O)[C@H](C)NC(=O)[C@H](CCC(N)=O)NC(=O)[C@H](Cc3cccc(C(=O)O)c3)NC(=O)[C@H](CC(=O)O)NC1=O)NC(=O)[C@H](CC(C)(C)C)NC(=O)[C@H](CC(=O)O)NC2=O (some centres unmarked) , please.
Response: 16.1

Where do the numbers come from? From patent US20240116985A1.
